tested on: NKM-1 (Acute Myeloid Leukemia); experiment: Bliss excess, mean over the matrix (fraction); higher = more synergy;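 also: after 72 h of two-drug dosing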
Reported Bliss excess is given for each of the following molecules.
experimental_endpoint: Bliss excess

>  <molecule>
COc1cc2c(cc1OCCCCCOc1cc3c(cc1OC)C(=O)N1C=C(C)C[C@H]1C=N3)N=C[C@@H]1CC(C)=CN1C2=O [SG3199] + O=C(c1cc(Cc2n[nH]c(=O)c3ccccc23)ccc1F)N1CCN(C(=O)C2CC2)CC1 [Olaparib] (first compound max 0.001 µM, 7x7, partner max 10 µM)

>  <measured_number>
-0.0362

$$$$
>  <molecule>
Cc1c2c(nn1C)CSCc1cc(n(C)n1)CSc1cc(c3ccccc3c1)OCCCc1c(C(=O)O)n(C)c3c-2c(Cl)ccc13 [AZD5991] + Nc1ccn([C@@H]2O[C@H](CO)[C@@H](O)C2(F)F)c(=O)n1 [Gemcitabine] (first compound max 1 µM, 7x7, partner max 0.3 µM)

>  <measured_number>
-0.0275

$$$$
